# Test Summary: In vitro microsomal stability, human
# Format: in vitro ADME
# Test Conditions: 45 min
Measured Attribute: % of compound remaining when incubated in human liver microsomes with NADPH (%)
Express it in %; write the number only.

compound="CC(C)(C)C[C@H]1N[C@@H](C(=O)N[C@H]2C[C@@H](O)C2)[C@H](c2cccc(Cl)c2F)[C@@]12C(=O)Nc1cc(Cl)ccc12 (stereo in doubt)" endpoint_value=26.74
compound="CC(O)C(O)CCNC(=O)[C@@H]1N[C@H](CC(C)(C)C)[C@]2(C(=O)Nc3cc(Cl)c(F)cc32)[C@H]1c1cccc(Cl)c1 (stereo partly shown)" endpoint_value=13.25
compound="CC(C)(C)C[C@H]1N[C@@H](C(=O)NC2CC(O)C2)[C@H](c2cccc(Cl)c2F)[C@@]12C(=O)Nc1cc(Cl)ccc12 (stereo partly shown)" endpoint_value=40.97

Request: For the compound `CC(C)(C)C[C@H]1N[C@@H](C(=O)N[C@H]2C[C@@](C)(O)C2)[C@H](c2cccc(Cl)c2F)[C@@]12C(=O)Nc1cc(Cl)ccc12` , give its reported % of compound remaining when incubated in human liver microsomes with NADPH.
Response: 55.9

---

# System Under Test: recombinant human His-tagged MDM2 protein (residues 1-118) (Homo sapiens (Human), UniProt Q00987)
# Sequence (Q00987 1-118): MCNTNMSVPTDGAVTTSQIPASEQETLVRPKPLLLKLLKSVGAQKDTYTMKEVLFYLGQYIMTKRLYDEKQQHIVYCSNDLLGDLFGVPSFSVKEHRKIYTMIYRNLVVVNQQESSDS
# Test Summary: Fluorescence-polarization MDM2 binding assay;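 note: fluorescence polarization read after three hours of incubation in potassium phosphate buffer containing bovine gamma globulin and Triton X-100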
# Test Conditions: Table 19A; FP binding assay; read-out: MDM2 IC50
Measured Attribute: IC50

Previously resolved entries follow.
molecule=CC(C)(C)C[C@H]1N[C@@H](C(=O)NCCN2CCNCC2)[C@H](c2cccc(Cl)c2)[C@@]12C(=O)Nc1cc(Cl)c(F)cc12 endpoint_value="< 1000 nM"
molecule="C[C@@H](N)C(=O)OC1CCC(NC(=O)[C@@H]2N[C@H](CC(C)(C)C)[C@]3(C(=O)Nc4cc(Cl)ccc43)[C@H]2c2cccc(Cl)c2F)CC1 (stereo partly drawn)" endpoint_value="< 1000 nM"

Request: For the molecule CC(C)(C)C[C@H]1N[C@@H](C(=O)NC2CCC(N)CC2)[C@H](c2cccc(Cl)c2)[C@@]12C(=O)Nc1cc(Cl)c(F)cc12 (stereo partly drawn) , give its reported IC50.
Response: < 1000 nM

Request: For the molecule `CNC(=O)[C@@H]1N[C@H](CC(C)(C)C)[C@]2(C(=O)Nc3cc(Cl)c(F)cc32)[C@H]1c1cccc(Cl)c1` , give its reported IC50.
Response: < 1000 nM

---

# System: cancer cell lines with wild-type p53 / mutated or deleted p53 (ATCC)
# Test Summary: Cell growth assay (WST-8), other cancer cell lines
# Assay type: cell-based
# Test Conditions: Table 19B; PC3 cells; read-out: Inhibition of cell growth IC50, PC3
Criterion: IC50 strictly under 20 µM. Met: t. Not met: f.

Look over these answered cases.
compound="CC(C)(C)C[C@H]1N[C@@H](C(=O)NCC[C@H]2CC[C@@H](O)C2)[C@H](c2cccc(Cl)c2F)[C@@]12C(=O)Nc1cc(Cl)ccc12 [MI-753]" label=f
compound="CN1[C@@H](C(=O)NCC[C@H](O)CO)[C@H](c2cccc(Cl)c2)[C@@]2(C(=O)Nc3cc(Cl)c(F)cc32)[C@H]1CC(C)(C)C [MI-708B]" label=f
compound="CN1[C@@H](C(=O)NCC[C@H](O)CO)[C@H](c2cccc(Cl)c2)[C@@]2(C(=O)Nc3cc(Cl)c(F)cc32)[C@H]1CC(C)(C)C [MI-708A]" label=f

Request: Item O=C(NCC[C@H](O)CO)[C@@H]1N[C@H](CC2CCCCC2)[C@]2(C(=O)Nc3cc(Cl)c(F)cc32)[C@H]1c1cccc(Cl)c1 [MI-716C] : IC50 beneath 20 µM, strictly?
Response: t

Request: Item O=C(NCC[C@H](O)CO)[C@@H]1N[C@H](CC2CCCCC2)[C@]2(C(=O)Nc3cc(Cl)c(F)cc32)[C@H]1c1cccc(Cl)c1 [MI-716B] : IC50 beneath 20 µM, strictly?
Response: t

Request: Item CN1[C@@H](C(=O)NCC[C@H](O)CO)[C@H](c2cccc(Cl)c2)[C@@]2(C(=O)Nc3cc(Cl)c(F)cc32)[C@H]1CC(C)(C)C [MI-717] : IC50 beneath 20 µM, strictly?
Response: f

Request: Item `CC(C)CC(C)(C)C[C@H]1N(C)[C@@H](C(=O)NCC[C@H](O)CO)[C@H](c2cccc(Cl)c2)[C@@]12C(=O)Nc1cc(F)c(F)cc12` : IC50 beneath 20 µM, strictly?
Response: t

Data provenance: patent US9079913B2
